Origin of the recorded values: PubChem BioAssay (NCI)

- System: OVCAR-3 ovarian
- assay_info: NCI tumour cell line growth inhibition, 48 h
Give label 1 when the value for TGI is at least 60 µM. Give label 0 when it is less.

Consider the following illustrative entries.
COc1ccc(OC)c2c(=S)c3ccccc3[nH]c12: label 1
COc1ccc2c(c1)/C(=C/c1cc(OC)c(OC)c(OC)c1)C(=O)N2C: label 0
Clc1ncc(Cl)c(Cl)n1: label 0
CCCN(CCSSCCNc1nc(N(C)O)nc(N(C)O)n1)c1nc(N(C)O)nc(N(C)O)n1: label 1
Clc1c(C(Cl)(Cl)Cl)nsc1N1CCCCC1: label 0
CC(C)OC(=O)[C@@H](O)[C@H](CO)C1=CC([Si](C)(C)c2ccccc2)=CON1: label 1
O=C(OCCC12CC3CC(CC(C3)C1)C2)c1ccc(NCc2cc(O)ccc2O)cc1: label 0
NC(=O)c1ccc2nc3c(n2c1)C(=O)C(=O)c1ccccc1-3: label 0
CC1CCc2sc3[nH]c(=S)n(-c4ccccc4)c(=O)c3c2C1 (stereo unspecified): label 1

Now for another entry.
Incoming: Quick check, TGI >= 60 µM? "Oc1cccc(-c2cn3cc(C(F)(F)F)ccc3n2)c1"
Outgoing: label 1

---

- Tested on: LOX IMVI melanoma
- assay_info: NCI tumour cell line growth inhibition, 48 h; in the data active = GI50 below about 0.43 µM; inactive = the rest
Returns: one label drawn from 1 (active), 0 (inactive)

O=C(Nc1ccccc1)Nc1cccc(Oc2nnc(Cl)c3ccccc23)c1: 0
O=C(COc1cccc(/C=C2\CSc3ccccc3C2=O)c1)c1ccc(Cl)cc1: 0
COc1ccc(N(/C=C/C(=O)C(F)(F)F)CC(=O)c2ccc(Cl)c(Cl)c2)cc1: 0
Cc1cc2cn3c4cccnc4[nH]c(=O)c3c2cc1C: 0
CNCCCNCCCN1C(=O)c2ccc3c4c(ccc(c24)C1=O)C(=O)N(CCCNCc1ccccc1OC)C3=O: 0

Incoming: Kindly provide the recorded test outcome for the following compound: "O=C(Nc1cccc(-n2cc(-c3ccncc3)c(-c3ccc(O)c(Cl)c3)n2)c1)Nc1cccc(C(F)(F)F)c1"
Outgoing: 0

Incoming: Kindly provide the recorded test outcome for the following compound: "CCOC(=O)c1cc(C(=O)c2cc(OC)c(OC)c(OC)c2)n2ccccc12"
Outgoing: 1

Incoming: Kindly provide the recorded test outcome for the following compound: "CCOC(=O)Nc1nc2c(C)cccc2s1"
Outgoing: 0

Incoming: Kindly provide the recorded test outcome for the following compound: "N#C/C(=C\c1ccc(Br)cc1)n1nnc2ccccc21"
Outgoing: 1

---

- System: SK-MEL-5 melanoma
- assay_info: NCI tumour cell line growth inhibition, 48 h; in the data active = GI50 below about 0.43 µM; inactive = the rest
Returns: one label drawn from YES for active, NO for inactive

Consider the following illustrative entries.
C1COCCOCCOCCOCCO1.CC(=O)[CH-]C(C)=O.CC(=O)[CH-]C(C)=O.CC(=O)[CH-]C(C)=O.[V]: NO
CCOC(=O)Nc1nc2c(C)cccc2s1: NO
Cc1cc2cn3c4cccnc4[nH]c(=O)c3c2cc1C: NO

Now for another entry.
Incoming: Kindly provide the recorded test outcome for the following compound: "Cc1[nH]nc2c1N=C(c1ccccc1Cl)c1cc([N+](=O)[O-])ccc1N2"
Outgoing: YES

---

Listed next: entries and their corresponding TGI.
- System: OVCAR-4 ovarian
- assay_info: NCI tumour cell line growth inhibition, 48 h

Oc1ccc(O)c(CNc2ccccc2)c1: 28.6 µM

Here is the next item to consider.
Incoming: Looking for the measured TGI of "CS(=O)(=O)OCCCOS(C)(=O)=O" , can you help?
Outgoing: > 100 µM

---

- Test system: UO-31 renal
- assay_info: NCI tumour cell line growth inhibition, 48 h
parameter_measured: TGI (µM)
Answer in µM, number only, no unit symbol.

Example entries and their recorded answers appear below.
COc1cc2c(cc1OCCCC(=O)Nc1cc(C(=O)NCCCN(C)C)n(C)n1)N=CC1CCCN1C2=O (stereo unspecified): 24.3
CC(=O)NC(Cc1ccc(OP(=O)(OCc2ccc([N+](=O)[O-])o2)N(C)CCCCCl)cc1)C(=O)NC(C)c1ccc(OCC2CCCCC2)c(C(N)=O)c1 (stereo unspecified): 45.2
N#Cc1ccc(Oc2nc3ccc(C(F)(F)F)cc3nc2-c2ccccc2)cc1: 46.1

Here is the next item to consider.
Incoming: Enter reported TGI observed with UO-31 renal for CCCCCCCCCCCCCCCCCCOCC(COP(=O)([O-])OCC[N+](C)(C)C)OC (stereo unspecified)
Outgoing: 52.7

---

- System: MOLT-4 leukemia
- assay_info: NCI tumour cell line growth inhibition, 48 h
parameter_measured: TGI

Example entries and their recorded answers appear below.
COC(=O)c1ccccc1C1CN=NC12Cc1cccc(C)c1C2=O (stereo unspecified): > 100 µM
CC12CCC(C(Nc3ccccn3)C1=O)C2(C)C (stereo unspecified): > 100 µM
Fc1ccc2[nH]cc(SSc3c[nH]c4ccc(F)cc34)c2c1: 33.4 µM
C=C(C(=O)OC)c1cc2ccccc2n1S(=O)(=O)c1ccccc1: > 24 µM
CCOP(=O)(OCC)C1=NC=CC=CC1n1c(-c2ccccc2)nn(CC)c1=O (stereo unspecified): > 100 µM

Incoming: Enter reported TGI observed with MOLT-4 leukemia for COC(=O)C1C(OCc2ccccc2)C2CCC1(OC)C=C2C (stereo unspecified)
Outgoing: 80.6 µM

---

- System: HT29 colon
- assay_info: NCI tumour cell line growth inhibition, 48 h; in the data active means GI50 below about 0.43 µM; inactive means the rest
*1 amine or outer side, *2 acyl side, *3 side chain or, on linkers, in order; H or OH if unused. Where a SMILES comes first, the peptide text is derived from it. [ ]: non-standard residue; d: D form. ξ: configuration not given here. X21 = CC[C@@H](C)C(N[*:1])C(=O)[*:2]; ξR = N=C(N)NCCCC(N)C(=O)O; ξI = CCC(C)C(N)C(=O)O; ξL = CC(C)CC(N)C(=O)O; ξK = NCCCCC(N)C(=O)O; ξV = CC(C)C(N)C(=O)O; ξA = CC(N)C(=O)O
Returns: one label drawn from True (active), False (inactive)

Consider the following illustrative entries.
COc1ccc2c(c1)/C(=C/c1cc(OC)c(OC)c(OC)c1)C(=O)N2C: False
Cc1[nH]nc2c1N=C(c1ccccc1Cl)c1cc([N+](=O)[O-])ccc1N2: False
Cn1c(=O)c(Oc2ccccc2)cc2cnc(NC3CCOCC3)nc21: False
COc1ccc2c(c1)C1(C(=O)N2)C(C#N)=C(c2ccccc2)Nc2c1c(-c1ccccc1)nn2-c1ccccc1 (configuration not stated): False
O=C1CCS/C(=N\S(=O)(=O)c2ccc(N3N=C4c5ccccc5CC4C3c3cccs3)cc2)N1C(=O)c1ccccc1 (configuration not stated): False
O=C(COc1cccc(/C=C2\CSc3ccccc3C2=O)c1)c1ccc(Cl)cc1: False

Incoming: Kindly provide the recorded test outcome for the following molecule: "CN(C)CCCn1c2nc(=O)[nH]c(=O)c-2nc2cc(Cl)c(Cl)cc21"
Outgoing: False

Incoming: Kindly provide the recorded test outcome for the following molecule: "CCOC(=O)c1cc(C(=O)c2cc(OC)c(OC)c(OC)c2)n2ccccc12"
Outgoing: True

Incoming: Kindly provide the recorded test outcome for the following molecule: CCC(C)C1NC(=O)C(CC(C)C)NC(=O)C(C)NC(=O)C(C(C)C)NC(=O)C(CCCCN)NC(=O)C(CC(C)C)NC(=O)C(C(C)C)NC(=O)[C@H](C)NC(=O)C(C(C)CC)NC(=O)C(CCCN=C(N)N)NC(=O)C(CCCCN)NC(=O)C(CCCN=C(N)N)NC(=O)C(CCCCN)NC(=O)C([C@H](C)CC)NC(=O)C(CCCCN)NC1=O (some centres not stated) (cyclo(A[ξV][ξL][ξK][ξV][ξA][ξL][ξI][ξK][X21][ξK][ξR][ξK][ξR][ξI]))
Outgoing: False

Incoming: Kindly provide the recorded test outcome for the following molecule: "COc1cc2c(cc1OCCCCOc1ccc(-c3nc4ccccc4s3)cc1)N=C[C@@H]1CCCN1C2=O"
Outgoing: False

Incoming: Kindly provide the recorded test outcome for the following molecule: "COc1ccccc1/C=C/C(=O)/C=C/c1ccccc1OC"
Outgoing: False

Incoming: Kindly provide the recorded test outcome for the following molecule: C=C1C[C@@]2(C)C(CC[C@]3(C)C2CC=C2C4CC(C)(C)C[C@@H](OC(=O)/C(C)=C\C)[C@]4(C(=O)O)CC[C@]23C)C(C)(C)C1=O (some centres not stated)
Outgoing: False

---

- Test system: NCI-H23 lung
- assay_info: NCI tumour cell line growth inhibition, 48 h
parameter_measured: TGI

CC(=O)OCC1=C(C)C[C@H]([C@@H](COC(C)=O)C2CCC3C4C[C@H]5O[C@]56CC=CC(=O)[C@]6(C)C4CC[C@@]32C)OC1=O (stereo partly specified): 3.59 µM
S=C(Nc1ccccn1)Nc1ccccc1Cl: > 100 µM
CC(=O)N1c2ccccc2C(C)C1c1[nH]c2ccccc2c1C (stereo unspecified): > 100 µM
O=C1c2ccccc2C(=O)c2c(O)ccc(O)c21: > 100 µM
COc1cc2c(c(OC)c1OC)-c1ccc(OC)c(=O)cc1[C@@H](N(C)C=O)CC2: > 100 µM
O=C1CCCC2=C1CC1=C(CCCC1=O)N2c1ccccc1: > 100 µM
COc1ccccc1/C=C/C(=O)/C=C/c1ccccc1OC: 3.92 µM
CC(C)(C)c1ccc(C(C)(C)C)c(N2C(=O)C3ON=C(c4ccc([N+](=O)[O-])cc4)C3C2=O)c1 (stereo unspecified): > 25 µM

Incoming: Looking for the measured TGI of "CNCCCNCCCN1C(=O)c2ccc3c4c(ccc(c24)C1=O)C(=O)N(CCCNCc1ccccc1OC)C3=O" , can you help?
Outgoing: 4.12 µM

Incoming: Looking for the measured TGI of "Cc1cc(=O)oc2cc(OS(C)(=O)=O)ccc12" , can you help?
Outgoing: > 100 µM

Incoming: Looking for the measured TGI of "NC1=Nc2cc(OCCCN3Cc4ccccc4C3)c(OCC3CC3)cc2C12CCCC2" , can you help?
Outgoing: 12.9 µM

Incoming: Looking for the measured TGI of O=C1CCS/C(=N\S(=O)(=O)c2ccc(N3N=C4c5ccccc5CC4C3c3cccs3)cc2)N1C(=O)c1ccccc1 (stereo unspecified) , can you help?
Outgoing: 41.5 µM

Incoming: Looking for the measured TGI of "CC1(CC2=C(C(=O)NCCO[Si](C)(C)C(C)(C)C)C3(OCCO3)C2=O)OCCO1" , can you help?
Outgoing: > 100 µM

Incoming: Looking for the measured TGI of "Clc1c(C(Cl)(Cl)Cl)nsc1N1CCCCC1" , can you help?
Outgoing: 34.7 µM

Incoming: Looking for the measured TGI of "CC(=O)O[C@H]1C[C@H]2C(=S)Nc3ccccc3C(=S)N2C1" , can you help?
Outgoing: > 100 µM

Incoming: Looking for the measured TGI of "C[C@H](N)C(=O)N1C[C@H](CCCB(O)O)[C@](N)(C(=O)O)C1" , can you help?
Outgoing: > 100 µM
